Molecular target: Tyrosine-protein phosphatase non-receptor type 2 (Homo sapiens)
Sequence (P17706 whole entry): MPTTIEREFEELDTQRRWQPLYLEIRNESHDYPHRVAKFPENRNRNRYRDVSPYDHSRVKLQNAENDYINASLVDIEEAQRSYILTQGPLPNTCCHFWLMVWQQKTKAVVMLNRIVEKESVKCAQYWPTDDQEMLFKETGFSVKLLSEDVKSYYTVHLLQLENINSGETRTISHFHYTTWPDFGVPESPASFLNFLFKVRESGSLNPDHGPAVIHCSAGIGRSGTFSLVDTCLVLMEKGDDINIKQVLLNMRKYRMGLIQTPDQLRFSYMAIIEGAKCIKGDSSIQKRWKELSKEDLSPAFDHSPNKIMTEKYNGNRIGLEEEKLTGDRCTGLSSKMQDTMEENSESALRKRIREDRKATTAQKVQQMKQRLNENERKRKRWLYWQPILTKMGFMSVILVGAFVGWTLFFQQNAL
Assay: Inhibition of full length recombinant N-terminal GST-tagged human TCPTP expressed in Escherichia coli using pNPP as substrate preincubated for 10 mins followed by substrate addition measured after 30 mins
Provide the reported IC50 of each item.
Supply the numeric figure in µM, leaving out any unit text.

Supply reported IC50 belonging to this compound: CC1=C(O)/C(=C/[C@@H](C)CCC/C(C)=C/CCC(C)(O)CCCc2ccoc2)OC1=O (some centres undefined)
3.7

Supply reported IC50 belonging to this compound: C/C(=C\CCc1ccoc1)C[C@H](O)C[C@@H](C)CCCc1ccoc1 [FUROSPONGIN 1]
9.6

Supply reported IC50 belonging to this compound: CC(=O)O[C@@H](C/C(C)=C/CCc1ccoc1)C[C@@H](C)CCCc1ccoc1
21.5

Supply reported IC50 belonging to this compound: CC1=C(O)/C(=C/[C@@H](C)CCC/C(C)=C/CC/C(C)=C/CCc2ccoc2)OC1=O
0.8
